# target-system: T1, RarA (Bacillus subtilis, UniProt O34528 1-421)
# T1 sequence: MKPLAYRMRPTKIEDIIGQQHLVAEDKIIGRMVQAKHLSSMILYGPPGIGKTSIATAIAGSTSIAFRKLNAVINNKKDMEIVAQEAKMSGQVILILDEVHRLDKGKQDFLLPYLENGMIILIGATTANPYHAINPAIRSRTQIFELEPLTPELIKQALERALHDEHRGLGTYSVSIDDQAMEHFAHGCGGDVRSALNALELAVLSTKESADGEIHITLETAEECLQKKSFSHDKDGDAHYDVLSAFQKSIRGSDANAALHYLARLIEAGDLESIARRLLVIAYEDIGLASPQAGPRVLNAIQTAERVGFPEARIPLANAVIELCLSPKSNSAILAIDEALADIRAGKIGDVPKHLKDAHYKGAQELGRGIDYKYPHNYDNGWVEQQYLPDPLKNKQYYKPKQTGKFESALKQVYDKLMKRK
# method-summary: EMSA
pKd: −log10 of the molar value.

{"binder": "replicated fork (F1/F2/F3) (dsDNA) DNA 1: TATAAAAAAAGCCAAGCTTGCATGCCTGCAGGTCGACTCTAGAGGATCCCCGGGTACCGAGCTCGAATTCACTGGCCGTCGTTTTACAACG DNA 2: AATTCGTTGTAAAACGACGGCCAGTGAATTCGAGCTCGGTACCCGCCAGCCACAGTCAGACACACACACACTACACACAAAAAAAAAAA DNA 3: TTTTTTTTTTTGTGTGTAGTGTGTGTGTGTCTGACTGTGGCTGG", "pKd": "~7.72"}
{"binder": "91-nt ssDNA (F1) (ssDNA) DNA: TATAAAAAAAGCCAAGCTTGCATGCCTGCAGGTCGACTCTAGAGGATCCCCGGGTACCGAGCTCGAATTCACTGGCCGTCGTTTTACAACG", "pKd": "~7.92"}
{"binder": "fork DNA (F1/F2) (dsDNA) DNA 1: TATAAAAAAAGCCAAGCTTGCATGCCTGCAGGTCGACTCTAGAGGATCCCCGGGTACCGAGCTCGAATTCACTGGCCGTCGTTTTACAACG DNA 2: AATTCGTTGTAAAACGACGGCCAGTGAATTCGAGCTCGGTACCCGCCAGCCACAGTCAGACACACACACACTACACACAAAAAAAAAAA", "pKd": "~7.92"}

Reference for the values: paper PMC6101539
